# credit: PubChem BioAssay (NCI)

# System: NCI-H522 lung
# assay_notes: NCI-60 one-dose screen, 48 h
# run_parameters: 10 µM unless noted
The panel holds about 83,000 compounds, 20% with a hit somewhere; the sample as a whole holds those more often. Active and inactive are the calls of the source. Rule for the calls: active = growth percent below 10; inactive = the rest.
Log the outcome using a class from active, inactive

Could you check what this test reported for Cc1ccc2c(C(C[N+](=O)[O-])c3ccco3)c(-c3ccccc3)[nH]c2c1 (stereo not drawn) ?
active

Try the compound O=C(/C=C/c1ccccc1)c1ccc(O)c(CN2CCN(c3cc4c(cc3F)c(=O)c(C(=O)O)cn4C3CC3)CC2)c1
active

Try the compound COc1ccc(C2C(C#N)=C(N)Oc3n[nH]c(-c4cccs4)c32)cc1I (stereo not drawn)
inactive

Try the compound COc1cc2c(cc1O)CC[C@@H]1[C@@H]2CC[C@]2(C)[C@@H](NCCN(C)C)CC[C@@H]12
active

Try the compound CCC([N+](=O)[O-])S(=O)(=O)c1ccc(C)cc1 (stereo not drawn)
inactive

Next:
Could you check what this test reported for O=[N+]([O-])c1ccc(Nc2nc(NCCN3CCOCC3)ncc2[N+](=O)[O-])cc1 ?
inactive

Try the compound COc1cc(C=Nc2oc(-c3ccccc3)c(-c3ccccc3)c2C#N)cc(CN2CCCCC2)c1O
inactive

Try the compound C=CC(COC(c1ccccc1)(c1ccccc1)c1ccccc1)N(CC)CC (stereo not drawn)
inactive

---

# Test system: SK-MEL-2 melanoma
# assay_notes: NCI-60 one-dose screen, 48 h (100 = growth as untreated, 0 = no growth, -100 = all killed)
# run_parameters: 10 µM unless noted
# Method: Growth inhibition of the SK-MEL-2 human tumor cell line is measured as a screen for anti-cancer activity. Cells are grown in 96 well plates and exposed to the test compound for 48 hours. Compounds are tested at a single concentration, which is 10^-5 M for most compounds. The reported endpoint is percent growth (GI% or GIPRCNT), where numbers from 0 - 100% represent growth inhibition, and numbers from -100% - 0 represent cell death. For example, a value of 40 represents 60% growth inhibition. […]
This is part of a sample that, as a whole, favours compounds with a hit. Of some 83,000 tested, about 20% had one in any assay.
Please respond with Satisfied when measured growth is strictly beneath 80%, and with Not satisfied in all other cases.

Sample answers from the record:
Please determine if C=C(C)[C@@H]1CC[C@]2(C(=O)OC)CC[C@]3(C)[C@H](CC[C@@H]4[C@@]5(C)C/C(=C/c6cccc(I)c6)C(=O)C(C)(C)[C@@H]5CC[C@]43C)[C@@H]12 is below 80% in terms of growth.
Not satisfied

Try the compound CN(C)c1ccc(NC(=O)c2ccc(/C=C/C(=O)c3ncc[nH]3)cc2)cc1
Not satisfied

Try the compound Nc1n[nH]c2ccc([C@@H]3Nc4ccc5cn[nH]c5c4[C@H]4C5CCC(C5)[C@@H]34)cc12 (stereo not given in full)
Satisfied

Try the compound CCCCC/C(C=C(C#N)C#N)=C/c1ccccc1
Not satisfied

Let us examine a further case.
Please determine if COc1ccc(C(=O)/C=C/c2cccnc2Nc2cc(OC)c(OC)c(OC)c2)cc1 is below 80% in terms of growth.
Satisfied

---

# Tested on: MDA-MB-435 melanoma
# assay_notes: NCI-60 one-dose screen, 48 h
# run_parameters: 10 µM unless noted
# Protocol: Growth inhibition of the MDA-MB-435 human Melanoma tumor cell line is measured as a screen for anti-cancer activity. Cells are grown in 96 well plates and exposed to the test compound for 48 hours. Compounds are tested at a single concentration, which is 10^-5 M for most compounds. The reported endpoint is percent growth (GI% or GIPRCNT), where numbers from 0 - 100% represent growth inhibition, and numbers from -100% - 0 represent cell death. […]
The panel holds about 83,000 compounds, 20% with a hit somewhere; the sample as a whole holds those more often. The source made the active and inactive calls. How the source made its calls: active means growth percent below 10; inactive means the rest.
Log the outcome using a class from t (active), f (inactive)

Could you check what this test reported for Cc1cc(C)nc(SC2=C(Nc3cccc(Cl)c3C)C(=O)N(Cc3ccccc3)C2=O)n1 ?
f

Next:
Could you check what this test reported for C=CC(=O)Nc1cccc(-c2nc(SC)nc(NCCN3CCOCC3)c2C#N)c1 ?
f

Try the compound CCNC(=O)Oc1ccc(/C(=C(\C)c2ccc(Cl)cc2)c2ccc(OCCN3CCCCC3)cc2)cc1
f

Try the compound CCc1nc(N)nc(N)c1C#CC(C)c1ccc(-c2ccncc2)cc1Cl (centres undefined)
f

Try the compound Cn1cc(C(=O)c2nc(-c3c[nH]c4ccc(Br)cc34)no2)c2cc(F)ccc21
f

Try the compound Cc1ccc(C2Oc3ccccc3C3CC(c4cccs4)=NN32)cc1 (centres undefined)
f

Try the compound Cc1cc(N2CCN(C)CC2)nc(NC2CCCC(Nc3ccnc4cc(Cl)ccc34)C2)n1 (centres undefined)
t

Try the compound COc1cc2nc(N3CCCC3)nc(NCc3ccccc3)c2cc1OC
t

Try the compound CCCOc1ccc2nc(NC(=O)OC)[nH]c2c1
t
